minimal effective concentration overview
Test system: third stage larvae of Haemonchus contortus
Assay: Haemonchus contortus, Larvae Stage 3 (HcL3) In Vitro Assay
Type: cell-based
Conditions: Haemonchus contortus, 96 h, read-out: HcL3 MED, Minimum Effective Dose, H. contortus third stage larvae, approximately 96 hours

- structure smiles string: "COc1cc(C)c(Cc2ccc(C[C@H]3OC(=O)[C@H](CC(C)C)N(C)C(=O)[C@@H](C)OC(=O)[C@H](CC(C)C)N(C)C(=O)[C@@H](Cc4ccccc4)OC(=O)[C@H](CC(C)C)N(C)C(=O)[C@@H](C)OC(=O)[C@H](CC(C)C)N(C)C3=O)cc2)cn1"
  study target: "third stage larvae of Haemonchus contortus"
  units: "µM"
  cmp: "="
  minimal effective concentration: 1.8
- structure smiles string: "Cc1ccc(Cc2ccc(C[C@H]3OC(=O)[C@H](CC(C)C)N(C)C(=O)[C@@H](C)OC(=O)[C@H](CC(C)C)N(C)C(=O)[C@@H](Cc4ccc(Cc5ccc(C)nc5C)cc4)OC(=O)[C@H](CC(C)C)N(C)C(=O)[C@@H](C)OC(=O)[C@H](CC(C)C)N(C)C3=O)cc2)c(C)n1"
  study target: "third stage larvae of Haemonchus contortus"
  units: "µM"
  cmp: "="
  minimal effective concentration: 5.7
- structure smiles string: "Cc1ccsc1Cc1ccc(C[C@H]2OC(=O)[C@H](CC(C)C)N(C)C(=O)[C@@H](C)OC(=O)[C@H](CC(C)C)N(C)C(=O)[C@@H](Cc3ccccc3)OC(=O)[C@H](CC(C)C)N(C)C(=O)[C@@H](C)OC(=O)[C@H](CC(C)C)N(C)C2=O)cc1"
  study target: "third stage larvae of Haemonchus contortus"
  units: "µM"
  cmp: "="
  minimal effective concentration: 0.5
- structure smiles string: "CC(C)C[C@H]1C(=O)O[C@H](Cc2ccc(Cc3cccc(F)n3)cc2)C(=O)N(C)[C@@H](CC(C)C)C(=O)O[C@H](C)C(=O)N(C)[C@@H](CC(C)C)C(=O)O[C@H](Cc2ccc(Cc3cccc(F)n3)cc2)C(=O)N(C)[C@@H](CC(C)C)C(=O)O[C@H](C)C(=O)N1C"
  study target: "third stage larvae of Haemonchus contortus"
  units: "µM"
  cmp: "="
  minimal effective concentration: 0.55
- structure smiles string: "CC(C)C[C@H]1C(=O)O[C@H](Cc2ccc(Cc3cncs3)cc2)C(=O)N(C)[C@@H](CC(C)C)C(=O)O[C@H](C)C(=O)N(C)[C@@H](CC(C)C)C(=O)O[C@H](Cc2ccc(Cc3cncs3)cc2)C(=O)N(C)[C@@H](CC(C)C)C(=O)O[C@H](C)C(=O)N1C"
  study target: "third stage larvae of Haemonchus contortus"
  units: "µM"
  cmp: "="
  minimal effective concentration: 3.3
- structure smiles string: "COc1cccc(Cc2ccc(C[C@H]3OC(=O)[C@H](CC(C)C)N(C)C(=O)[C@@H](C)OC(=O)[C@H](CC(C)C)N(C)C(=O)[C@@H](Cc4ccc(Cc5cccc(OC)n5)cc4)OC(=O)[C@H](CC(C)C)N(C)C(=O)[C@@H](C)OC(=O)[C@H](CC(C)C)N(C)C3=O)cc2)n1"
  study target: "third stage larvae of Haemonchus contortus"
  units: "µM"
  cmp: "="
  minimal effective concentration: 0.5
- structure smiles string: "COc1ccsc1Cc1ccc(C[C@H]2OC(=O)[C@H](CC(C)C)N(C)C(=O)[C@@H](C)OC(=O)[C@H](CC(C)C)N(C)C(=O)[C@@H](Cc3ccc(Cc4sccc4OC)cc3)OC(=O)[C@H](CC(C)C)N(C)C(=O)[C@@H](C)OC(=O)[C@H](CC(C)C)N(C)C2=O)cc1"
  study target: "third stage larvae of Haemonchus contortus"
  units: "µM"
  cmp: ">"
  minimal effective concentration: 100
